The origin of these recorded values is patent US20250304677A1.

# experimental_target: T1, mouse folate receptor alpha (mFRα), recombinant protein (mouse, UniProt P35846 25-232)
# T1 construct: Bought recombinant proteins (e.g. biotinylated, Acro Biosystems FO1-M82E9); also called mFOLR1; Ms FOLR1
# T1 sequence (P35846 25-232 limits assumed): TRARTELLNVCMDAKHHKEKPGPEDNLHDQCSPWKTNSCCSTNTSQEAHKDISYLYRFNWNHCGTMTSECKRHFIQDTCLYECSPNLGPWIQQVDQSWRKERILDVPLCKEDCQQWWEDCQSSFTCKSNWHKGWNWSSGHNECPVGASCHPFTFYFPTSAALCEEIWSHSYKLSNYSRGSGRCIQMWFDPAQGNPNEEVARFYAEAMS
# procedure_summary: ELISA on recombinant mouse FOLR1, cMyc tag detection, normalised binding, non-linear fit
reported_property: EC50 (nM)

a = VHH 2HFO42 (family 3) (VHH, also called 2HF042; Nb42) VHH: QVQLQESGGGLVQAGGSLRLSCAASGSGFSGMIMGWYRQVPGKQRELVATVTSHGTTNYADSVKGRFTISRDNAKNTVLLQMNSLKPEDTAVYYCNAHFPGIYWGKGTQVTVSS
b = VHH 3MFR60 (family 10) (VHH) VHH: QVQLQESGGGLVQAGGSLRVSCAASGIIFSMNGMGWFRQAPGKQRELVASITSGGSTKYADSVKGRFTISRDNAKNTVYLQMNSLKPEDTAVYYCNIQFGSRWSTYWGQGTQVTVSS
Input pair: a , b . Output: entry with lower EC50. // caller expects the label of the chosen entry a
